test system: soybean (Glycine max); assay: Test C preemergence, soybean; format: in vivo; settings: 31 g ai/ha Preemergence; 0 is no effect, 100 is complete control
Parameter measured: Plant response rating (0 to 100 scale), Soybean
API doc: respond with a numeric literal and nothing else, no unit.

Some compounds with known Plant response rating (0 to 100 scale), Soybean results, for comparison:
Cc1c(NS(=O)(=O)C(F)(F)F)cc(N2CCC(OCC3CCC3)C2=O)c(C)c1F (stereo not shown) [Compound 64] = 40
Cc1cc(Cl)c(N(COC(=O)C(C)(C)C)S(=O)(=O)C(F)(F)F)cc1N1CCC(OC2CC2)C1=O (stereo not shown) [Compound 33] = 0
C=C(C)COC1CCN(c2cc(NS(=O)(=O)C(F)(F)F)c(C)cc2C)C1=O (stereo not shown) [Compound 59] = 60

Next up:
Query: Can you look up the measured Plant response rating (0 to 100 scale), Soybean of Cc1c(N2CCC(OC3CC3)C2=O)cc(N(COC(=O)C(C)(C)C)S(=O)(=O)C(F)(F)F)c(C)c1F (stereo not shown) [Compound 23] for me?
Reply: 30
